tested on: Staphylococcus aureus; experiment: Antimicrobial activity against Staphylococcus aureus CIP 76.25 by microdilution method in presence of 0.1% alpha-1-acid glycoprotein; format: functional
parameter-measured: MIC (µg/mL)
Only the number, expressed in µg/mL, is required.

Would you kindly share the measured MIC for CC(=O)O[C@H]1C[C@@]2(C)[C@@H](C[C@@H](O)[C@H]3[C@@]4(C)CC[C@@H](O)[C@@H](C)[C@@H]4CC[C@@]32C)/C1=C(\CCC=C(C)C)C(=O)O ?
2

Would you kindly share the measured MIC for CN(C)c1ccc(O)c2c1C[C@H]1C[C@H]3[C@H](N(C)C)C(O)=C(C(N)=O)C(=O)[C@@]3(O)C(O)=C1C2=O ?
1

Would you kindly share the measured MIC for CO[C@H]1/C=C/O[C@@]2(C)Oc3c(C)c(O)c4c(O)c(c(/C=N/N5CCN(C)CC5)c(O)c4c3C2=O)NC(=O)/C(C)=C\C=C\[C@H](C)[C@H](O)[C@@H](C)[C@@H](O)[C@@H](C)[C@H](OC(C)=O)[C@@H]1C ?
1

Would you kindly share the measured MIC for CO/N=C(\C(=O)N[C@@H]1C(=O)N2C(C(=O)O)=C(COC(C)=O)CS[C@H]12)c1csc(N)n1 ?
1

Would you kindly share the measured MIC for CCC[C@@H]1C[C@@H](C(=O)N[C@@H]([C@H]2O[C@H](SC)[C@H](O)[C@@H](O)[C@H]2O)[C@@H](C)O)N(C)C1 ?
2

Would you kindly share the measured MIC for CC1COc2c(N3CCN(C)CC3)c(F)cc3c(=O)c(C(=O)O)cn1c23 (stereo not drawn) ?
1

Would you kindly share the measured MIC for CC[C@H]1OC(=O)[C@H](C)[C@@H](O[C@H]2C[C@@](C)(OC)[C@@H](O)[C@H](C)O2)[C@H](C)[C@@H](O[C@@H]2O[C@H](C)C[C@H](N(C)C)[C@H]2O)[C@](C)(O)C[C@@H](C)C(=O)[C@H](C)[C@@H](O)[C@]1(C)O ?
2

Would you kindly share the measured MIC for CO[C@@H]1[C@@H](OC(N)=O)[C@@H](O)[C@H](Oc2ccc3c(O)c(NC(=O)c4ccc(O)c(CC=C(C)C)c4)c(=O)oc3c2C)OC1(C)C ?
2

----------
target: Albumin (Homo sapiens); experiment: Binding affinity to first site on human serum albumin by SPR
Sequence (P02768 whole entry): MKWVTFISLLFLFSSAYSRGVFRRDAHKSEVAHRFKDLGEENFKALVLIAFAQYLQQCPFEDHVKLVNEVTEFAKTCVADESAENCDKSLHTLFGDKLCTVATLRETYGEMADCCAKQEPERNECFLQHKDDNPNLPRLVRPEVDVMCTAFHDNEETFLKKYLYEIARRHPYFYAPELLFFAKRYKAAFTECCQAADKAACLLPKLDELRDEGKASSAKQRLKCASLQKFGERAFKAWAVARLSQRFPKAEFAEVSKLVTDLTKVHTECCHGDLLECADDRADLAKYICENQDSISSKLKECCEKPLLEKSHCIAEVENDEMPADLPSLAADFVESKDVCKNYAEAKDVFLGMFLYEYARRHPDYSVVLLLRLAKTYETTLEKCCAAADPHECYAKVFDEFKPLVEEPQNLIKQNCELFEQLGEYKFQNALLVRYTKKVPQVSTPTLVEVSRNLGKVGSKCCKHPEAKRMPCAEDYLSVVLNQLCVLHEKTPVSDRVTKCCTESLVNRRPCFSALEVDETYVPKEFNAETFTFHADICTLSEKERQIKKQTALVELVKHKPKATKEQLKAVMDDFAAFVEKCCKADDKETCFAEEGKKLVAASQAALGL
Kindly supply the reported Kd values for the records listed here.
Only the number, expressed in µM, is required.

Would you kindly share the measured Kd for CN(C)c1ccc(O)c2c1C[C@H]1C[C@H]3[C@H](N(C)C)C(O)=C(C(N)=O)C(=O)[C@@]3(O)C(O)=C1C2=O ?
12

Would you kindly share the measured Kd for CC[C@H]1OC(=O)[C@H](C)[C@@H](O[C@H]2C[C@@](C)(OC)[C@@H](O)[C@H](C)O2)[C@H](C)[C@@H](O[C@@H]2O[C@H](C)C[C@H](N(C)C)[C@H]2O)[C@](C)(O)C[C@@H](C)C(=O)[C@H](C)[C@@H](O)[C@]1(C)O ?
12

Would you kindly share the measured Kd for CO[C@H]1/C=C/O[C@@]2(C)Oc3c(C)c(O)c4c(O)c(c(/C=N/N5CCN(C)CC5)c(O)c4c3C2=O)NC(=O)/C(C)=C\C=C\[C@H](C)[C@H](O)[C@@H](C)[C@@H](O)[C@@H](C)[C@H](OC(C)=O)[C@@H]1C ?
12

----------
experiment: Protein binding in serum; type: ADME, cell-free; details: read-out: PB (converted)
Consider the cut-off 0.5. If the recorded fraction unbound is strictly smaller, the label is TRUE; if not, the label is FALSE.

Check if fraction unbound falls below 0.5 for CO/N=C(\C(=O)N[C@@H]1C(=O)N2C(C(=O)O)=C(COC(C)=O)CS[C@H]12)c1csc(N)n1 .
FALSE

Check if fraction unbound falls below 0.5 for CN(C)c1ccc(O)c2c1C[C@H]1C[C@H]3[C@H](N(C)C)C(O)=C(C(N)=O)C(=O)[C@@]3(O)C(O)=C1C2=O .
TRUE

Check if fraction unbound falls below 0.5 for CCC[C@@H]1C[C@@H](C(=O)N[C@@H]([C@H]2O[C@H](SC)[C@H](O)[C@@H](O)[C@H]2O)[C@@H](C)O)N(C)C1 .
TRUE

Check if fraction unbound falls below 0.5 for CC[C@H]1OC(=O)[C@H](C)[C@@H](O[C@H]2C[C@@](C)(OC)[C@@H](O)[C@H](C)O2)[C@H](C)[C@@H](O[C@@H]2O[C@H](C)C[C@H](N(C)C)[C@H]2O)[C@](C)(O)C[C@@H](C)C(=O)[C@H](C)[C@@H](O)[C@]1(C)O .
FALSE

Check if fraction unbound falls below 0.5 for CC(=O)O[C@H]1C[C@@]2(C)[C@@H](C[C@@H](O)[C@H]3[C@@]4(C)CC[C@@H](O)[C@@H](C)[C@@H]4CC[C@@]32C)/C1=C(\CCC=C(C)C)C(=O)O .
TRUE

Check if fraction unbound falls below 0.5 for CO[C@H]1/C=C/O[C@@]2(C)Oc3c(C)c(O)c4c(O)c(c(/C=N/N5CCN(C)CC5)c(O)c4c3C2=O)NC(=O)/C(C)=C\C=C\[C@H](C)[C@H](O)[C@@H](C)[C@@H](O)[C@@H](C)[C@H](OC(C)=O)[C@@H]1C .
TRUE

Check if fraction unbound falls below 0.5 for CN[C@H](CC(C)C)C(=O)N[C@H]1C(=O)N[C@@H](CC(N)=O)C(=O)N[C@H]2C(=O)N[C@H]3C(=O)N[C@H](C(=O)N[C@H](C(=O)O)c4cc(O)cc(O)c4-c4cc3ccc4O)[C@H](O)c3ccc(c(Cl)c3)Oc3cc2cc(c3O[C@@H]2O[C@H](CO)[C@@H](O)[C@H](O)[C@H]2O[C@H]2C[C@](C)(N)[C@H](O)[C@H](C)O2)Oc2ccc(cc2Cl)[C@H]1O .
FALSE

----------
tested on: Staphylococcus aureus; assay: Antimicrobial activity against Staphylococcus aureus CIP 76.25 by microdilution method in presence of 4% human serum albumin; type: functional
parameter-measured: MIC (µg/mL)
Only the number, expressed in µg/mL, is required.

Would you kindly share the measured MIC for CO[C@@H]1[C@@H](OC(N)=O)[C@@H](O)[C@H](Oc2ccc3c(O)c(NC(=O)c4ccc(O)c(CC=C(C)C)c4)c(=O)oc3c2C)OC1(C)C [NOVOBIOCIN] ?
256

Would you kindly share the measured MIC for CC[C@H]1OC(=O)[C@H](C)[C@@H](O[C@H]2C[C@@](C)(OC)[C@@H](O)[C@H](C)O2)[C@H](C)[C@@H](O[C@@H]2O[C@H](C)C[C@H](N(C)C)[C@H]2O)[C@](C)(O)C[C@@H](C)C(=O)[C@H](C)[C@@H](O)[C@]1(C)O [ERYTHROMYCIN] ?
2

Would you kindly share the measured MIC for CC1COc2c(N3CCN(C)CC3)c(F)cc3c(=O)c(C(=O)O)cn1c23 (stereo not drawn) [OFLOXACIN] ?
1

Would you kindly share the measured MIC for CO/N=C(\C(=O)N[C@@H]1C(=O)N2C(C(=O)O)=C(COC(C)=O)CS[C@H]12)c1csc(N)n1 [CEFOTAXIME] ?
1

Would you kindly share the measured MIC for CC(=O)O[C@H]1C[C@@]2(C)[C@@H](C[C@@H](O)[C@H]3[C@@]4(C)CC[C@@H](O)[C@@H](C)[C@@H]4CC[C@@]32C)/C1=C(\CCC=C(C)C)C(=O)O [FUSIDIC ACID] ?
256

Would you kindly share the measured MIC for CN(C)c1ccc(O)c2c1C[C@H]1C[C@H]3[C@H](N(C)C)C(O)=C(C(N)=O)C(=O)[C@@]3(O)C(O)=C1C2=O [MINOCYCLINE] ?
4

Would you kindly share the measured MIC for CCC[C@@H]1C[C@@H](C(=O)N[C@@H]([C@H]2O[C@H](SC)[C@H](O)[C@@H](O)[C@H]2O)[C@@H](C)O)N(C)C1 [LINCOMYCIN] ?
2

Would you kindly share the measured MIC for CO[C@H]1/C=C/O[C@@]2(C)Oc3c(C)c(O)c4c(O)c(c(/C=N/N5CCN(C)CC5)c(O)c4c3C2=O)NC(=O)/C(C)=C\C=C\[C@H](C)[C@H](O)[C@@H](C)[C@@H](O)[C@@H](C)[C@H](OC(C)=O)[C@@H]1C [RIFAMPIN] ?
4

----------
test system: Staphylococcus aureus; assay: Antimicrobial activity against Staphylococcus aureus CIP 76.25 by microdilution method in presence of 1.6% gamma globulin; type: functional
Kindly supply the reported MIC values for the records listed here.
Only the number, expressed in µg/mL, is required.

Would you kindly share the measured MIC for CC[C@H]1OC(=O)[C@H](C)[C@@H](O[C@H]2C[C@@](C)(OC)[C@@H](O)[C@H](C)O2)[C@H](C)[C@@H](O[C@@H]2O[C@H](C)C[C@H](N(C)C)[C@H]2O)[C@](C)(O)C[C@@H](C)C(=O)[C@H](C)[C@@H](O)[C@]1(C)O ?
2

Would you kindly share the measured MIC for CN(C)c1ccc(O)c2c1C[C@H]1C[C@H]3[C@H](N(C)C)C(O)=C(C(N)=O)C(=O)[C@@]3(O)C(O)=C1C2=O ?
1

Would you kindly share the measured MIC for CCC[C@@H]1C[C@@H](C(=O)N[C@@H]([C@H]2O[C@H](SC)[C@H](O)[C@@H](O)[C@H]2O)[C@@H](C)O)N(C)C1 ?
1

Would you kindly share the measured MIC for CO[C@@H]1[C@@H](OC(N)=O)[C@@H](O)[C@H](Oc2ccc3c(O)c(NC(=O)c4ccc(O)c(CC=C(C)C)c4)c(=O)oc3c2C)OC1(C)C ?
2

Would you kindly share the measured MIC for CO[C@H]1/C=C/O[C@@]2(C)Oc3c(C)c(O)c4c(O)c(c(/C=N/N5CCN(C)CC5)c(O)c4c3C2=O)NC(=O)/C(C)=C\C=C\[C@H](C)[C@H](O)[C@@H](C)[C@@H](O)[C@@H](C)[C@H](OC(C)=O)[C@@H]1C ?
2

Would you kindly share the measured MIC for CC1COc2c(N3CCN(C)CC3)c(F)cc3c(=O)c(C(=O)O)cn1c23 (stereo not drawn) ?
2

Would you kindly share the measured MIC for CC(=O)O[C@H]1C[C@@]2(C)[C@@H](C[C@@H](O)[C@H]3[C@@]4(C)CC[C@@H](O)[C@@H](C)[C@@H]4CC[C@@]32C)/C1=C(\CCC=C(C)C)C(=O)O ?
2

Would you kindly share the measured MIC for CO/N=C(\C(=O)N[C@@H]1C(=O)N2C(C(=O)O)=C(COC(C)=O)CS[C@H]12)c1csc(N)n1 ?
2
